- ASSAYED_SYSTEM: human SGLT2 (Homo sapiens)
- Sequence (P31639 whole entry): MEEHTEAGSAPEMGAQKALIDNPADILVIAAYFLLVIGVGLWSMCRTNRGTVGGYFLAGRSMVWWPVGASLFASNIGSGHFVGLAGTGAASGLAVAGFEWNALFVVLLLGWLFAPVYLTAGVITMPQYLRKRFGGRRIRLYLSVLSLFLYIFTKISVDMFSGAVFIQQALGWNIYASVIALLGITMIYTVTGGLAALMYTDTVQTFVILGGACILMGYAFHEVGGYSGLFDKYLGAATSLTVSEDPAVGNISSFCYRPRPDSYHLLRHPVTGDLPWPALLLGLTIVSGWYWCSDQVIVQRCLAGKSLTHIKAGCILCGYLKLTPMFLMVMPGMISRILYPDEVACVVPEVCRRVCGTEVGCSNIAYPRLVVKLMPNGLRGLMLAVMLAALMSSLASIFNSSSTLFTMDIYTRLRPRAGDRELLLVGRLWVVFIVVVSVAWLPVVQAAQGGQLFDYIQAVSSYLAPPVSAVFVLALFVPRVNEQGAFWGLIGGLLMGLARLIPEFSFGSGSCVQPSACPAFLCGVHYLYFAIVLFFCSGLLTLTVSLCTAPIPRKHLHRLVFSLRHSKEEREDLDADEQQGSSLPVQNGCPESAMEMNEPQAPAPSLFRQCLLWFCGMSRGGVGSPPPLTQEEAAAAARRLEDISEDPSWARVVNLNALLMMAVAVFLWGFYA
- ASSAY_SUMMARY: Assay for inhibitory effects on human SGLT2 activity (uptake of methyl-α-D-glucopyranoside)
- ASSAY_CONTEXT: inhibition of uptake of 14C-labeled methyl-α-D-glucopyranoside (1 mM) in CS2-5E cells (CHO-K1) stably expressing human SGLT2, 37° C., 1 hour
pIC50: −log10 of the molar value.
REPORTED_ENDPOINT: pIC50

(a) OC[C@H]1O[C@@H](Oc2cccc3occ(CCc4ccccc4)c23)[C@H](O)[C@@H](O)[C@@H]1O
(b) OC[C@H]1O[C@@H](Oc2cccc3occ(CCc4ccncc4)c23)[C@H](O)[C@@H](O)[C@@H]1O
(c) Cc1ccccc1CCc1coc2cccc(O[C@@H]3O[C@H](CO)[C@@H](O)[C@H](O)[C@H]3O)c12
Prompt: Please put the entries in order of rising pIC50. Response field: labels, in requested order.
Completion: c, b, a
(c: 7.39, b: 7.92, a: 8.22)

Source: patent US7566699B2
